// data source = patent US7629318B2

Measured Stability (Arbitrary units) Mouse 6 h of individual entries
Test: Stability of compounds in mouse blood plasma
Type: in vitro ADME
Numbered stars: 1 amine (or outer) side, 2 acyl side, 3 side chain; on linkers, the order of the positions; unused ones are H or OH. Square brackets hold non-standard residues; d marks the D form. Peptide text beside a SMILES is read from it. * marks the point of attachment. Gly(1-amidinopiperidin-4-yl) = N=C(N)N1CCC([C@H](N)C(=O)O)CC1; X1 = CC(C)c1oc([C@H](CO)N[*:1])nc1C(=O)[*:2]; Pro(3R-Ph) = O=C(O)[C@H]1NCC[C@@H]1c1ccccc1; Met(O) = CS(=O)CC[C@H](N)C(=O)O; Tic = O=C(O)[C@@H]1Cc2ccccc2CN1; Cha = N[C@@H](CC1CCCCC1)C(=O)O; Nle = CCCC[C@H](N)C(=O)O; X6 = OCCN(CCc1ccccc1)*; X5 = OCCN(Cc1ccccc1)*
Note: unit Arbitrary units is implicit; provide only the numeric part.

INSERT INTO results (compound, readout_number) VALUES
  ('CCCC[C@H](NC(=O)[C@@H]1Cc2ccccc2CN1C(=O)[C@H](CCCNC(=N)N)NC(=O)[C@H](CC1CCCCC1)NC(C)=O)C(=O)N(CCO)CCc1ccccc1 [Compound P81, Ac-Cha-Arg-Tic-Nle-N(CH2CH2OH)CH2CH2Ph] (Ac-[Cha]R[Tic][Nle]-X6)', 107);

Exercise: Give the reported value of Stability (Arbitrary units) Mouse 6 h for this record: CC(=O)N[C@@H](CC1CCCCC1)C(=O)N[C@H](C(=O)N1Cc2ccccc2C[C@H]1C(=O)N[C@@H](CC[S+](C)[O-])C(=O)N1CC[C@H](c2ccccc2)[C@H]1C(=O)N[C@@H](CO)c1nc(C(=O)N(C)C)c(C(C)C)o1)C1CCN(C(=N)N)CC1 (stereo partly drawn) [Compound P47] (Ac-[Cha][Gly(1-amidinopiperidin-4-yl)][Tic][Met(O)][Pro(3R-Ph)][X1]-NMe2)
Solution: 126

Exercise: Give the reported value of Stability (Arbitrary units) Mouse 6 h for this record: CCCC[C@H](NC(=O)[C@@H]1Cc2ccccc2CN1C(=O)[C@@H](NC(=O)[C@H](CC1CCCCC1)NC(C)=O)C1CCN(C(=N)N)CC1)C(=O)N(CCO)Cc1ccccc1 [Compound P78, Ac-Cha-Gpg-Tic-Nle-N(Bn)CH2CH2OH] (Ac-[Cha][Gly(1-amidinopiperidin-4-yl)][Tic][Nle]-X5)
Solution: 90
